# Method Notes: Hemolytic activity in human RBC assessed as hemolysis at 1 to 128 uM relative to control
# Format: ADME, cell-based, Erythrocyte
# Condition Set: human red blood cells (RBC), dose 1-128 µM, read-out: Activity
Where a SMILES comes first, the peptide text is derived from it.

Compound | hemolysis at up to 128 µM
CC[C@H](C)[C@H](N)C(=O)N[C@H](C(=O)N[C@@H](CS)C(=O)N[C@@H](CCCNC(=N)N)C(=O)N[C@@H](CCCCN)C(=O)N1CCC[C@H]1C(=O)N[C@H](C(=O)N[C@H](C(=O)N[C@@H](CS)C(=O)N[C@@H](CCCNC(=N)N)C(=O)N[C@@H](CCCCN)C(=O)N1CCC[C@H]1C(=O)N[C@H](C(=O)N[C@H](C(N)=O)[C@@H](C)CC)[C@@H](C)CC)[C@@H](C)CC)[C@@H](C)CC)[C@@H](C)CC (H-IICRKPIICRKPII-NH2) | < 5%
CC[C@H](C)[C@H](N)C(=O)N[C@H](C(=O)N[C@H](C(=O)N[C@@H](CS)C(=O)N[C@@H](CCCNC(=N)N)C(=O)N[C@@H](CCCCN)C(=O)N1CCC[C@H]1C(=O)N[C@H](C(=O)N[C@H](C(=O)N[C@@H](CS)C(=O)N[C@@H](CCCNC(=N)N)C(=O)N[C@@H](CCCCN)C(=O)N1CCC[C@H]1C(=O)N[C@H](C(=O)N[C@H](C(=O)N[C@H](C(N)=O)[C@@H](C)CC)[C@@H](C)CC)[C@@H](C)CC)[C@@H](C)CC)[C@@H](C)CC)[C@@H](C)CC)[C@@H](C)CC (H-IIICRKPIICRKPIII-NH2) | < 5%
CC[C@H](C)[C@H](N)C(=O)N[C@@H](CS)C(=O)N[C@@H](CCCNC(=N)N)C(=O)N[C@@H](CCCCN)C(=O)N1CCC[C@H]1C(=O)N[C@H](C(=O)N[C@H](C(=O)N[C@@H](CS)C(=O)N[C@@H](CCCNC(=N)N)C(=O)N[C@@H](CCCCN)C(=O)N1CCC[C@H]1C(=O)N[C@H](C(N)=O)[C@@H](C)CC)[C@@H](C)CC)[C@@H](C)CC (H-ICRKPIICRKPI-NH2) | < 5%

---

# Method Notes: Therapeutic index, ratio of MHC for human RBC to geometric mean of peptide MIC for Streptococcus agalactiae H92
# Type: toxicity
# Condition Set: human red blood cells (RBC), read-out: TI
Where a SMILES comes first, the peptide text is derived from it.
Reported selectivity ratio values follow for various compounds
Measure Name: selectivity ratio

Compound | Value Observed
CC[C@H](C)[C@H](N)C(=O)N[C@H](C(=O)N[C@H](C(=O)N[C@@H](CS)C(=O)N[C@@H](CCCNC(=N)N)C(=O)N[C@@H](CCCCN)C(=O)N1CCC[C@H]1C(=O)N[C@H](C(=O)N[C@H](C(=O)N[C@@H](CS)C(=O)N[C@@H](CCCNC(=N)N)C(=O)N[C@@H](CCCCN)C(=O)N1CCC[C@H]1C(=O)N[C@H](C(=O)N[C@H](C(=O)N[C@H](C(N)=O)[C@@H](C)CC)[C@@H](C)CC)[C@@H](C)CC)[C@@H](C)CC)[C@@H](C)CC)[C@@H](C)CC)[C@@H](C)CC (H-IIICRKPIICRKPIII-NH2) | 2
CC[C@H](C)[C@H](N)C(=O)N[C@@H](CS)C(=O)N[C@@H](CCCNC(=N)N)C(=O)N[C@@H](CCCCN)C(=O)N1CCC[C@H]1C(=O)N[C@H](C(=O)N[C@H](C(=O)N[C@@H](CS)C(=O)N[C@@H](CCCNC(=N)N)C(=O)N[C@@H](CCCCN)C(=O)N1CCC[C@H]1C(=O)N[C@H](C(N)=O)[C@@H](C)CC)[C@@H](C)CC)[C@@H](C)CC (H-ICRKPIICRKPI-NH2) | 2
CC(C)[C@H](N)C(=O)N[C@@H](CS)C(=O)N[C@@H](CCCNC(=N)N)C(=O)N[C@@H](CCCCN)C(=O)N1CCC[C@H]1C(=O)N[C@H](C(=O)N[C@H](C(=O)N[C@@H](CS)C(=O)N[C@@H](CCCNC(=N)N)C(=O)N[C@@H](CCCCN)C(=O)N1CCC[C@H]1C(=O)N[C@H](C(N)=O)C(C)C)C(C)C)C(C)C (H-VCRKPVVCRKPV-NH2) | 2

---

# Method Notes: Therapeutic index, ratio of MHC for human RBC to geometric mean of peptide MIC for Staphylococcus epidermidis ATCC 12228
# Format: toxicity
# Condition Set: human red blood cells (RBC), read-out: TI
Where a SMILES comes first, the peptide text is derived from it.
Reported selectivity ratio values follow for various compounds

Compound | selectivity ratio
CC[C@H](C)[C@H](N)C(=O)N[C@@H](CS)C(=O)N[C@@H](CCCNC(=N)N)C(=O)N[C@@H](CCCCN)C(=O)N1CCC[C@H]1C(=O)N[C@H](C(=O)N[C@H](C(=O)N[C@@H](CS)C(=O)N[C@@H](CCCNC(=N)N)C(=O)N[C@@H](CCCCN)C(=O)N1CCC[C@H]1C(=O)N[C@H](C(=O)N[C@H](C(=O)N[C@@H](CS)C(=O)N[C@@H](CCCNC(=N)N)C(=O)N[C@@H](CCCCN)C(=O)N1CCC[C@H]1C(=O)N[C@H](C(N)=O)[C@@H](C)CC)[C@@H](C)CC)[C@@H](C)CC)[C@@H](C)CC)[C@@H](C)CC (H-ICRKPIICRKPIICRKPI-NH2) | 2
CC[C@H](C)[C@H](N)C(=O)N[C@@H](CS)C(=O)N[C@@H](CCCNC(=N)N)C(=O)N[C@@H](CCCCN)C(=O)N1CCC[C@H]1C(=O)N[C@H](C(=O)N[C@H](C(=O)N[C@@H](CS)C(=O)N[C@@H](CCCNC(=N)N)C(=O)N[C@@H](CCCCN)C(=O)N1CCC[C@H]1C(=O)N[C@H](C(N)=O)[C@@H](C)CC)[C@@H](C)CC)[C@@H](C)CC (H-ICRKPIICRKPI-NH2) | 2

---

# Tested on: Salmonella typhimurium
# Method Notes: Antibacterial activity against Salmonella typhimurium 7731 after 18 to 24 hrs by CLSI-based broth microdilution method
# Assay type: functional, Salmonella enterica subsp. enterica serovar Typhimurium
# Condition Set: Salmonella enterica, time hrs 18-24
Where a SMILES comes first, the peptide text is derived from it.

Compound | Assay System | MIC
CC[C@H](C)[C@H](N)C(=O)N[C@H](C(=O)N[C@H](C(=O)N[C@@H](CS)C(=O)N[C@@H](CCCNC(=N)N)C(=O)N[C@@H](CCCCN)C(=O)N1CCC[C@H]1C(=O)N[C@H](C(=O)N[C@H](C(=O)N[C@@H](CS)C(=O)N[C@@H](CCCNC(=N)N)C(=O)N[C@@H](CCCCN)C(=O)N1CCC[C@H]1C(=O)N[C@H](C(=O)N[C@H](C(=O)N[C@H](C(N)=O)[C@@H](C)CC)[C@@H](C)CC)[C@@H](C)CC)[C@@H](C)CC)[C@@H](C)CC)[C@@H](C)CC)[C@@H](C)CC (H-IIICRKPIICRKPIII-NH2) | Salmonella typhimurium | 32 µM
CC(C)[C@H](N)C(=O)N[C@@H](CS)C(=O)N[C@@H](CCCNC(=N)N)C(=O)N[C@@H](CCCCN)C(=O)N1CCC[C@H]1C(=O)N[C@H](C(=O)N[C@H](C(=O)N[C@@H](CS)C(=O)N[C@@H](CCCNC(=N)N)C(=O)N[C@@H](CCCCN)C(=O)N1CCC[C@H]1C(=O)N[C@H](C(=O)N[C@H](C(=O)N[C@@H](CS)C(=O)N[C@@H](CCCNC(=N)N)C(=O)N[C@@H](CCCCN)C(=O)N1CCC[C@H]1C(=O)N[C@H](C(N)=O)C(C)C)C(C)C)C(C)C)C(C)C)C(C)C (H-VCRKPVVCRKPVVCRKPV-NH2) | Salmonella typhimurium | 16 µM
CC[C@H](C)[C@H](N)C(=O)N[C@@H](CS)C(=O)N[C@@H](CCCNC(=N)N)C(=O)N[C@@H](CCCCN)C(=O)N1CCC[C@H]1C(=O)N[C@H](C(=O)N[C@H](C(=O)N[C@@H](CS)C(=O)N[C@@H](CCCNC(=N)N)C(=O)N[C@@H](CCCCN)C(=O)N1CCC[C@H]1C(=O)N[C@H](C(=O)N[C@H](C(=O)N[C@@H](CS)C(=O)N[C@@H](CCCNC(=N)N)C(=O)N[C@@H](CCCCN)C(=O)N1CCC[C@H]1C(=O)N[C@H](C(N)=O)[C@@H](C)CC)[C@@H](C)CC)[C@@H](C)CC)[C@@H](C)CC)[C@@H](C)CC (H-ICRKPIICRKPIICRKPI-NH2) | Salmonella typhimurium | 8 µM

Each recorded value in this set is attributed to ChEMBL document CHEMBL4665709.
